Listing of entries alongside the reported IC50.
TARGET ENTITY: Sodium channel protein type 5 subunit alpha (Homo sapiens, UniProt Q14524)
PROTOCOL TEXT: Inhibition of neonatal Nav1.5 in human MDA-MB-231 cells assessed as reduction in inward sodium peak current at -100 mV holding potential after 5 to 10 mins by whole cell patch clamp method
Type: cell-based
Sequence (Q14524 whole entry, looked up): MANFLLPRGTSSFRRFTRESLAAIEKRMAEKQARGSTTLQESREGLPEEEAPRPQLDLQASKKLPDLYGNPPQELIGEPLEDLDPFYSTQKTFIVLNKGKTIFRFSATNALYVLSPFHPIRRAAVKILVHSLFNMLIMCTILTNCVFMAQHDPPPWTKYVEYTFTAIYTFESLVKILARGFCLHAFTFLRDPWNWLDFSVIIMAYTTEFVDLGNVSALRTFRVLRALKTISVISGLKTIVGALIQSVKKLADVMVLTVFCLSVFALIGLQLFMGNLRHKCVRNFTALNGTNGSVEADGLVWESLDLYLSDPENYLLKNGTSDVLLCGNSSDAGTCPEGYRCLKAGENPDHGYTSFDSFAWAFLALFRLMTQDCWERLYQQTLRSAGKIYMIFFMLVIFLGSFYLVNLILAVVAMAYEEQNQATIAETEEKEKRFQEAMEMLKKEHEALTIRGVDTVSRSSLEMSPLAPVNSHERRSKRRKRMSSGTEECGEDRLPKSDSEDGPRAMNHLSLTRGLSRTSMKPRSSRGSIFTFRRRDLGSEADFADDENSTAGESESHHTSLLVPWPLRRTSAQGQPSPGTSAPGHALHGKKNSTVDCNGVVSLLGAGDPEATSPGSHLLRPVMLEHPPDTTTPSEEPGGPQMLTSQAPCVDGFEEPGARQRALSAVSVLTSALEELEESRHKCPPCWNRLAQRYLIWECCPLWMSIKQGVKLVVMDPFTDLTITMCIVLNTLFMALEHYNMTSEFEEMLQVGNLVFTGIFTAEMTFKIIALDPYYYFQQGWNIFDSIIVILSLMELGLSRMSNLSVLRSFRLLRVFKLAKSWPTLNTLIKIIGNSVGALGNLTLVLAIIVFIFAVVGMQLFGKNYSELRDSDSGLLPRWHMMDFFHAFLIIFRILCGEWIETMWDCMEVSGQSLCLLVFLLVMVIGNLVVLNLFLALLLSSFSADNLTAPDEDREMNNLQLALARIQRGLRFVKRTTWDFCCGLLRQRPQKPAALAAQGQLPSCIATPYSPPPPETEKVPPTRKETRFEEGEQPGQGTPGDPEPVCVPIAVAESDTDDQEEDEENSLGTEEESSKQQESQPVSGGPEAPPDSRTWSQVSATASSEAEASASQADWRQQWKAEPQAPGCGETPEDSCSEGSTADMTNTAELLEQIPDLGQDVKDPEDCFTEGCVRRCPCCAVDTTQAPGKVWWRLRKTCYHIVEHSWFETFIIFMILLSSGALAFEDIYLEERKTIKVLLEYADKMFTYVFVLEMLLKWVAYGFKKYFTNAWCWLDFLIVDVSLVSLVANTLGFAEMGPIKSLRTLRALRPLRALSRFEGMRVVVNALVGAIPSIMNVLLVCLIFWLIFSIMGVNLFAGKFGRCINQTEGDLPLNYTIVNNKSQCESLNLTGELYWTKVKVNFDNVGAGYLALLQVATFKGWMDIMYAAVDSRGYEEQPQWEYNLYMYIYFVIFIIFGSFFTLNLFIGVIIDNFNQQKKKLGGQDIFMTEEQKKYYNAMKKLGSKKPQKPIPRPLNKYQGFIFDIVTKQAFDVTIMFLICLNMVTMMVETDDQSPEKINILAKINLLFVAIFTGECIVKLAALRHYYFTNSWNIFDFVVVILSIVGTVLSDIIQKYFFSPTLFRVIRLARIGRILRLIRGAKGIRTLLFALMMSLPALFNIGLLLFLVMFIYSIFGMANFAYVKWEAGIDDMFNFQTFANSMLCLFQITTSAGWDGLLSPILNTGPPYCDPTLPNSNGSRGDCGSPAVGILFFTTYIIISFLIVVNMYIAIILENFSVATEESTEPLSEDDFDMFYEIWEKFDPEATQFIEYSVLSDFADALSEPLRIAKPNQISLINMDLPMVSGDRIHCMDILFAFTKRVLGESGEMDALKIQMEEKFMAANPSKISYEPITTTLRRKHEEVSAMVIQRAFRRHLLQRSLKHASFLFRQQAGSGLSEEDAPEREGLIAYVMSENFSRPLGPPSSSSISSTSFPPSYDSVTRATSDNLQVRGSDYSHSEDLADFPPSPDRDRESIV
RECORDED ENDPOINT: IC50 (µM)

- Fc1ccc(CCCCNCCCN2CCCCC2)cc1: 5.9
- Fc1ccc(C(CCCNCCCN2CCCCC2)c2ccc(F)cc2)cc1: 4.8

###

PROTOCOL TEXT: Cytotoxicity against human MDA-MB-231 cells assessed as reduction in cell viability after 24 hrs by MTS assay
Type: cell-based
RECORDED ENDPOINT: MNTC at 24 h

- Fc1ccc(C(CCCNCCc2ccccc2)c2ccc(F)cc2)cc1: 10 µM
- NC1=N[C@H](O)[C@H]2[C@H]3O[C@]4(O)O[C@@H]([C@@H](O)[C@@]2(N1)[C@@H]4O)[C@]3(O)CO: 30 µM
- CC(C)(C)CCCCNCCCN1CCCCC1: 10 µM
- Fc1ccc(CCCCNCCCN2CCCCC2)cc1: > 25 µM
- Fc1ccc(C(CCCNCCCN2CCCCC2)c2ccc(F)cc2)cc1: 5 µM
- Fc1ccc(C(CCCNCCCc2ccccc2)c2ccc(F)cc2)cc1: 10 µM

###

Listing of entries alongside the reported inhibition at 10 µM.
TARGET ENTITY: Sodium channel protein type 5 subunit alpha (Homo sapiens, UniProt Q14524)
PROTOCOL TEXT: Inhibition of neonatal Nav1.5 in human MDA-MB-231 cells assessed as reduction in inward sodium peak current at 10 uM at -100 mV holding potential after 5 to 10 mins by whole cell patch clamp method relative to control
Assay type: cell-based
CONDITION CONTEXT: MDA-MB-231, human
Sequence (Q14524 whole entry): as the sequence (Q14524 whole entry, looked up) above
RECORDED ENDPOINT: inhibition at 10 µM (%)

* Fc1ccc(C(CCCNCCCc2ccccc2)c2ccc(F)cc2)cc1 | 30
* CC(C)(C)CCCCNCCCN1CCCCC1 | 30
* Fc1ccc(C(CCCNCCCN2CCCCC2)c2ccc(F)cc2)cc1 | 50
* Fc1ccc(CCCCNCCCN2CCCCC2)cc1 | 60
* Fc1ccc(C(CCCNCCc2ccccc2)c2ccc(F)cc2)cc1 | 30
